# STUDY_TARGET: Cytochrome P450 2C19 (Homo sapiens) (UniProt P33261)
# Sequence (P33261 whole entry, looked up): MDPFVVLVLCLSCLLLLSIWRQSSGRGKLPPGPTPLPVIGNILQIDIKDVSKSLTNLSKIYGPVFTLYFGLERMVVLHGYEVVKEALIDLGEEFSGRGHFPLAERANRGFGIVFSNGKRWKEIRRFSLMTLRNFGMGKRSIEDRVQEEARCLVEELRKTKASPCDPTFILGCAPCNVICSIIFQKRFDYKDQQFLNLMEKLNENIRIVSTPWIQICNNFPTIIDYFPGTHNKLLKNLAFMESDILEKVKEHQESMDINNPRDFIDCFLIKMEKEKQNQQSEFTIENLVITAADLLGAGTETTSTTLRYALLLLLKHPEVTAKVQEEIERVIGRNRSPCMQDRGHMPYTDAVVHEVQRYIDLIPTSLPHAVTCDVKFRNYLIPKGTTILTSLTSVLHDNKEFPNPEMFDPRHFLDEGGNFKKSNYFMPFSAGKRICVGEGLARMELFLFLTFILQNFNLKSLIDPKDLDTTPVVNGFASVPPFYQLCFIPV
# PROTOCOL_SUMMARY: Cytochrome panel assay with activity outcomes
# ASSAY_CONDITIONS: recombinant CYP, pro-luciferin dealkylation, luminescence, p450-cyp2c19; series mostly up to 57.1 µM
Among all 16,000 compounds or so, about 5,800 (36%) were called active. Roughly 23% stayed inconclusive and do not appear here. The call rests on the fitted dose curve; in most records, active means well fitted curve in the direction sought with a large enough effect; inconclusive means small, poorly fitted or top-dose-only effect, or effect the other way; inactive means no such curve, though single readings can be large or run the other way. This is one part of the list.
Result category, one only: active, inactive

Which outcome was assigned to Cc1ccc(S(=O)(=O)CC#CCOC(=O)c2ccc([N+](=O)[O-])cc2)cc1 in this test? active

Next: O=[N+]([O-])c1ccc(S(=O)(=O)Cc2ccccc2)c2nonc12 active

Next: COc1ccc2cc(CCC(C)=O)ccc2c1 inactive

Next: CC1(C(=O)CSc2nc3ccccc3s2)CCC(=O)O1 (configuration not stated) active

Next: COc1ccc2oc(-c3ccc(C)c(NC(=O)CSc4ccc(Cl)cc4)c3)nc2c1 active

Next: CC(C)CC1CC(=O)OC1(C)C(=O)CSc1nc2ccccc2s1 (configuration not stated) active

Next: C=CCN=C1CC(C)(C)CC(=O)/C1=C(\O)c1ccccc1 active

Next: COc1ccc2cc(C(=O)CCC(=O)O)ccc2c1 active

Next: CC(NC(=O)CN1CCCC1)C12CC3CC(CC(C3)C1)C2 (configuration not stated) active

Next: OCCN1CCOCCOCCN(CCO)CCN(CCO)CC1 inactive

Next: CCOc1ccc(C(=O)CCC(=O)O)cc1 inactive

Next: O=C1Nc2ccccc2Nc2ncccc21 inactive

====

# STUDY_TARGET: Cytochrome P450 2C19 (Homo sapiens)
# PROTOCOL_SUMMARY: Cytochrome panel assay with activity outcomes
# ASSAY_CONDITIONS: recombinant CYP, pro-luciferin dealkylation, luminescence, p450-cyp2c19; series mostly up to 57.1 µM
In all, about 16,000 compounds went through this assay and about 5,800 (36%) were called active. Another 23% or so got no clear call; they are omitted. The call rests on the fitted dose curve; in most records, active means well fitted curve in the direction sought with a large enough effect; inconclusive means small, poorly fitted or top-dose-only effect, or effect the other way; inactive means no such curve, though single readings can be large or run the other way. Some of the results follow.
Result category, one only: active, inactive

Which outcome was assigned to CSc1nsc(SC)c1NC(=O)OCc1ccccc1 in this test? active

Next: O=C1CN=C(Nc2ccccc2)N1Cc1cccs1 active

Next: NC(=O)C1(N2CCCCC2)CCN(C(=O)c2ccc(-n3cnnn3)cc2)CC1 inactive

Next: O=c1cnc2cnc(Nc3ccccc3)nc2n1Cc1cccs1 inactive

Next: CCOc1ccc(NC2=NCC(=O)N2Cc2cccs2)cc1 active

Next: Cc1nc2cnc(Nc3ccccc3)nc2n(Cc2cccs2)c1=O inactive

Next: CCCCOC(=O)c1ccc(NC(=S)NC(=O)c2c(Cl)cnn2C)cc1 active

Next: CSc1nsc(SC)c1NC(=O)Nc1ccccn1 active

Next: c1csc(CNc2ncncc2-c2ccoc2)c1 active

Next: c1cncc(-c2cncnc2NCc2cccs2)c1 inactive

Next: C=CCN1C(=O)CN=C1Nc1ccccc1 inactive

Next: c1ccc(CNc2ncncc2-c2ccoc2)cc1 active

Next: CNc1ncnc2c1ncn2[C@@H]1O[C@H](CO)[C@@H](O)[C@@H]1O inactive

====

# STUDY_TARGET: Cytochrome P450 2C19 (Homo sapiens)
# PROTOCOL_SUMMARY: Cytochrome panel assay with activity outcomes
# ASSAY_CONDITIONS: recombinant CYP, pro-luciferin dealkylation, luminescence, p450-cyp2c19; series mostly up to 57.1 µM
# Experimental: The P450 gene superfamily is involved in the metabolism and clearance of xenobiotics. This assay used various human CYP P450 isozymes to measure the dealkylation of various pro-luciferin substrates to luciferin. The luciferin is then measured by luminescence after the addition of a luciferase detection reagent. […] Inhibitors and some substrates limit the production of luciferin, and decrease measured luminescence. […] 8, Detection, 1 sec, ViewLux luminescent read […]
About 5,800 (36%) of roughly 16,000 compounds were called active. Inconclusive results (about 23%) are left out. Calls follow the shape of the dose curve; as a rule, active = well fitted curve in the direction sought with a large enough effect; inconclusive = small, poorly fitted or top-dose-only effect, or effect the other way; inactive = no such curve, though single readings can be large or run the other way. The list shows a part of the results.
Result category, one only: true (1) (active), false (0) (inactive)

Which outcome was assigned to Cc1ccc(C(C(=O)NCc2ccco2)N(C(=O)CNC(=O)c2cccs2)c2ccc(C)cc2C)cc1 (centres undefined) in this test? true (1)

Next: COc1ccc(C[C@@H]2c3cc(OC)c(OC)cc3CC[N@+]2(C)CCC(=O)OCCCCCOC(=O)CC[N@@+]2(C)CCc3cc(OC)c(OC)cc3[C@H]2Cc2ccc(OC)c(OC)c2)cc1OC false (0)

Next: Cc1ccc(-c2c3c(nc4sc(C(N)=O)c(N)c24)CCC3)cc1 true (1)

Next: COc1ccc(CCN(C(=O)C(F)(F)F)C(C(=O)NC2CCCC2)c2cccs2)cc1 (centres undefined) true (1)

Next: CCc1cccc(NC(=O)CN(C)S(=O)(=O)c2cnc[nH]2)c1 true (1)

Next: COc1ccc(C(C(=O)NC2CCCC2)N(C(=O)c2snc(-c3ccc(F)cc3)c2N)c2ccccc2)cc1 (centres undefined) false (0)

Next: COc1cccc(-c2cncnc2NCCc2cnc[nH]2)c1 true (1)

Next: COc1ccccc1-c1cncnc1NCCc1cnc[nH]1 true (1)

Next: CN(CC(=O)N1CCN(c2ccccc2)CC1)S(=O)(=O)c1cnc[nH]1 true (1)
